Where these numbers come from: ChEMBL document CHEMBL3585313

Test: Hepatic extraction ratio in rat liver microsomes at 1 uM up to 30 mins by LC-MS/MS analysis
Format: ADME
Conditions: read-out: ERH
Observable: hepatic extraction ratio at 0.5 h, 1 µM
// keep it numeric: no unit symbol after the value

stdin: Quick one: hepatic extraction ratio at 0.5 h, 1 µM of Cn1cc(-c2cccc3c(N)c(C(N)=O)nnc23)cn1 ?
stdout: 0.5

---

Molecular target: Tyrosine-protein kinase Blk (Homo sapiens, UniProt P51451)
Sequence (P51451 whole entry): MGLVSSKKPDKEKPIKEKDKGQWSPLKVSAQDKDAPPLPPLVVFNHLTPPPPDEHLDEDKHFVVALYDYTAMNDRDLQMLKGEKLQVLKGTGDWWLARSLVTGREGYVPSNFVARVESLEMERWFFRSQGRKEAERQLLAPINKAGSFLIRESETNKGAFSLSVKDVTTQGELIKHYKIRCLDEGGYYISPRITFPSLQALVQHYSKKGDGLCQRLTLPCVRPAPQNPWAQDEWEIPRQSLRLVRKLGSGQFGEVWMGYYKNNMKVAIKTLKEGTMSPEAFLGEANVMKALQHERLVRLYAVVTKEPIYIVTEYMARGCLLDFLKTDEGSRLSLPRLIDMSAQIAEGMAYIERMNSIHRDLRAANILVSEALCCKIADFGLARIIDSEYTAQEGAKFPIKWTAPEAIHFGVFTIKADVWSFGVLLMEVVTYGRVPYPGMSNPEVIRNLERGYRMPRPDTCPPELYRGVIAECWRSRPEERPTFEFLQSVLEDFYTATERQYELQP
Assay: Inhibition of human recombinant Blk
Observable: pIC50
The scale used: pIC50 is minus the common logarithm of the concentration in molar units.

stdin: Quick one: pIC50 of Cc1cc2cn[nH]c2cc1-c1cccc2c(N)c(C(N)=O)nnc12 ?
stdout: 7.44
